target system: UniProt P32245
Sequence (P32245 whole entry): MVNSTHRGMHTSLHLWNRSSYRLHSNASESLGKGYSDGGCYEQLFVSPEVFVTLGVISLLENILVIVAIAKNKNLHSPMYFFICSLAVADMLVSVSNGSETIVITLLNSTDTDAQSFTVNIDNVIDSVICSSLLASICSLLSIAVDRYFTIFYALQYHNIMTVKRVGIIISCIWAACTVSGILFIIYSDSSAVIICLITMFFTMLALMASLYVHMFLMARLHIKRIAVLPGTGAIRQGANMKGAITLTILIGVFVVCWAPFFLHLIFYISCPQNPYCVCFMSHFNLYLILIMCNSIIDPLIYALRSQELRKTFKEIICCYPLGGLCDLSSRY
assay method text: Displacement of [125I]-[Nle4, D-Phe7]alpha-MSH from human melanocortin 4 receptor expressed in HEK293 cells
Assay type: cell-based
property name: IC50

Q: Consider the compound N=C(N)NCCC[C@@H]1NC(=O)[C@@H](Cc2ccccc2)NC(=O)[C@H](Cc2cnc[nH]2)NC(=O)c2cc([N+](=O)[O-])ccc2SC[C@@H](C(N)=O)NC(=O)[C@@H](Cc2c[nH]c3ccccc23)NC1=O and give its measured IC50.
Result: > 1 µM

Q: May I ask what IC50 has been recorded for N=C(N)NCCC[C@@H]1NC(=O)[C@@H](Cc2ccccc2)NC(=O)[C@@H]2CCCN2C(=O)c2cc([N+](=O)[O-])ccc2SC[C@@H](C(N)=O)NC(=O)[C@H](Cc2c[nH]c3ccccc23)NC1=O ?
Result: > 1 µM

Q: State the recorded IC50 for this entry: NC(=O)[C@@H]1CSc2ccc([N+](=O)[O-])cc2C(=O)N[C@@H](Cc2cnc[nH]2)C(=O)N[C@H](Cc2ccccc2)C(=O)N[C@@H](CCCN=C(N)N)C(=O)N[C@@H](Cc2c[nH]c3ccccc23)C(=O)N1
Result: 0.047 µM

Q: I would be grateful if you could share the reported IC50 for NC(=O)[C@@H]1CSc2ccc([N+](=O)[O-])cc2C(=O)N[C@@H](Cc2cnc[nH]2)C(=O)N[C@H](Cc2ccccc2)C(=O)N[C@@H](CCCN=C(N)N)C(=O)N[C@@H](Cc2ccc3ccccc3c2)C(=O)N1 .
Result: > 1 µM

====

Exercise: state measured pEC50 for each of the compounds provided.
target system: Melanocyte-stimulating hormone receptor (Homo sapiens, UniProt Q01726)
Sequence (Q01726 whole entry): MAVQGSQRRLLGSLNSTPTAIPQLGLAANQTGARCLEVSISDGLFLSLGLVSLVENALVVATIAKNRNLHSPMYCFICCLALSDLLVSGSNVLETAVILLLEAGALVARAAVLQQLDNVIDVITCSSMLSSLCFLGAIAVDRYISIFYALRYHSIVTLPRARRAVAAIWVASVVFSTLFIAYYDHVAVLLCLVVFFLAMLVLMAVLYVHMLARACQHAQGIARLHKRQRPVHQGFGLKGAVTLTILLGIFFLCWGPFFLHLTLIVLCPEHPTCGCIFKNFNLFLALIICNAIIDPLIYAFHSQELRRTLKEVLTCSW
assay method text: Agonist activity at human melanocortin 1 receptor expressed in HEK293 cells assessed as cAMP accumulation
Assay type: functional, cell-based
pEC50 field: float, defined as -log10 of concentration (mol/L).

Q: Entry NC(=O)[C@@H]1CSc2ccc([N+](=O)[O-])cc2C(=O)N[C@@H](Cc2cnc[nH]2)C(=O)N[C@H](Cc2ccccc2)C(=O)N[C@@H](CCCN=C(N)N)C(=O)N[C@@H](Cc2c[nH]c3ccccc23)C(=O)N1 has what pEC50?
Result: 8.70

Q: Reported pEC50, compound NC(=O)[C@@H]1CSc2ccc([N+](=O)[O-])cc2C(=O)N[C@@H](Cc2cnc[nH]2)C(=O)N[C@H](Cc2ccccc2)C(=O)N[C@@H](CCCN=C(N)N)C(=O)N[C@@H](Cc2ccc3ccccc3c2)C(=O)N1 : ____
Result: 7.15

====

Hi there, I'd appreciate the recorded pIC50 for every entry that follows.
target system: Melanocortin receptor 3 (Homo sapiens, UniProt P41968)
Sequence (P41968 whole entry): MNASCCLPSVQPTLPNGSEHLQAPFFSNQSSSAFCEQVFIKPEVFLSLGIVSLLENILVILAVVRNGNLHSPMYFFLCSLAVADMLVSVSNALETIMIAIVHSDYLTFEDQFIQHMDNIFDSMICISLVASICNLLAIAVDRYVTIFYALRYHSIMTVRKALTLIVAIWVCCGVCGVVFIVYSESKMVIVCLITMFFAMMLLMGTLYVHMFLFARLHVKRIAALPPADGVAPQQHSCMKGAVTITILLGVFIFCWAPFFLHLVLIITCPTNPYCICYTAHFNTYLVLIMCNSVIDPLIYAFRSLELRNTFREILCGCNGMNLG
assay method text: Displacement of [125I]-[Nle4, D-Phe7]alpha-MSH from human melanocortin 3 receptor expressed in HEK293 cells
Type: cell-based
Remember, pIC50 is on a log scale: it is -log10 of the molar concentration.

Q: Which pIC50 is reported for this compound? N=C(N)NCCC[C@@H]1NC(=O)[C@@H](Cc2ccccc2)NC(=O)[C@@H]2CCCN2C(=O)c2cc([N+](=O)[O-])ccc2SC[C@@H](C(N)=O)NC(=O)[C@H](Cc2c[nH]c3ccccc23)NC1=O
Result: 6.42

Q: State the recorded pIC50 for this entry: NC(=O)[C@@H]1CSc2ccc([N+](=O)[O-])cc2C(=O)N[C@@H](Cc2cnc[nH]2)C(=O)N[C@H](Cc2ccccc2)C(=O)N[C@@H](CCCN=C(N)N)C(=O)N[C@@H](Cc2c[nH]c3ccccc23)C(=O)N1
Result: 7.40

Q: What value of pIC50 has been reported for the following compound? NC(=O)[C@@H]1CSc2ccc([N+](=O)[O-])cc2C(=O)N[C@@H](Cc2cnc[nH]2)C(=O)N[C@H](Cc2ccccc2)C(=O)N[C@@H](CCCN=C(N)N)C(=O)N[C@@H](Cc2ccc3ccccc3c2)C(=O)N1
Result: 6.21

Q: Which pIC50 reading was recorded for the compound NC(=O)[C@@H]1CSc2ccc([N+](=O)[O-])cc2C(=O)N[C@@H](Cc2cnc[nH]2)C(=O)N[C@H](Cc2ccc3ccccc3c2)C(=O)N[C@@H](CCCN=C(N)N)C(=O)N[C@@H](Cc2c[nH]c3ccccc23)C(=O)N1 ?
Result: 6.72
